Each recorded value in this set is attributed to patent US12617837B2.

# EXPERIMENTAL_SYSTEM: Clec10a-Fc (Mus musculus)
# Construct: cloning the extracellular region of mouse Clec10a into a pME18S expression vector; made in house; host or cells: HEK293T cells
# Sequence (P49300 57-304 limits assumed): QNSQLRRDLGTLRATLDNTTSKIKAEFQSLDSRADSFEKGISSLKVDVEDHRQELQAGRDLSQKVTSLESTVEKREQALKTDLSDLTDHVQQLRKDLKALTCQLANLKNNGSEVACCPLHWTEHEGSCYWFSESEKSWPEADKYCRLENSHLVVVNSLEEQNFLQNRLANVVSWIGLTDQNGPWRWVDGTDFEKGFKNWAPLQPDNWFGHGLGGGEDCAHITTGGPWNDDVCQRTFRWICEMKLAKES
# ASSAY_SUMMARY: Sugar conjugate (glycan) microarray analysis of Clec10a-Fc (Table 7); note: unit not given here
# Format: binding
# ASSAY_SETUP: glycan microarray probed with Clec10a-Fc
Item-by-item account of Signal value, Clec10a-Fc
Note: the reply should be a number with no unit written.

The examples below pair each entry with its known result.
MOLECULE: CC(=O)N[C@@H]1[C@@H](O)[C@H](O[C@@H]2O[C@H](COS(=O)(=O)O)[C@H](O)[C@H](O)[C@H]2O)[C@@H](CO)O[C@H]1O [[6′S]LN]
EXPERIMENTAL_SYSTEM: Clec10a-Fc (Mus musculus)
Signal value, Clec10a-Fc: 0

MOLECULE: CC(=O)N[C@@H]1[C@@H](O[C@H]2O[C@H](CO)[C@H](O)[C@H](O)[C@H]2NC(C)=O)[C@@H](O)[C@@H](CO)O[C@H]1O [Forssman disaccharide]
EXPERIMENTAL_SYSTEM: Clec10a-Fc (Mus musculus)
Signal value, Clec10a-Fc: 0

MOLECULE: CC(=O)N[C@@H]1[C@@H](O[C@@H]2O[C@@H](C)[C@@H](O)[C@@H](O)[C@@H]2O)[C@H](O[C@@H]2O[C@H](CO)[C@H](O)[C@H](O[C@]3(C(=O)O)C[C@H](O)[C@@H](NC(C)=O)[C@H]([C@H](O)[C@H](O)CO)O3)[C@H]2O)[C@@H](CO)O[C@H]1O
EXPERIMENTAL_SYSTEM: Clec10a-Fc (Mus musculus)
Signal value, Clec10a-Fc: 1

MOLECULE: C[C@@H]1O[C@@H](O[C@@H]2[C@@H](O)[C@@H](O)[C@@H](CO)O[C@H]2O)[C@@H](O)[C@H](O)[C@@H]1O
EXPERIMENTAL_SYSTEM: Clec10a-Fc (Mus musculus)
Signal value, Clec10a-Fc: 0

MOLECULE: OC[C@H]1O[C@@H](O[C@H]2[C@H](O)[C@@H](O)[C@H](O)O[C@@H]2CO)[C@H](O)[C@@H](O)[C@H]1O
EXPERIMENTAL_SYSTEM: Clec10a-Fc (Mus musculus)
Signal value, Clec10a-Fc: 4850

Pending molecule:
Enquiry: Request the reported Signal value, Clec10a-Fc associated with CC(=O)N[C@@H]1[C@@H](O)[C@@H](O)[C@@H](CO)O[C@H]1O
Return: 6

----------
Item-by-item account of Signal value, Clec10a-Fc
# EXPERIMENTAL_SYSTEM: Clec10a-Fc (Mus musculus)
# Construct: cloning the extracellular region of mouse Clec10a into a pME18S expression vector; made in house; host or cells: HEK293T cells
# ASSAY_SUMMARY: Sugar conjugate (glycan) microarray analysis of Clec10a-Fc (Table 7); note: unit not given here
# Type: binding
# ASSAY_SETUP: glycan microarray probed with Clec10a-Fc
Note: the reply should be a number with no unit written.

The examples below pair each entry with its known result.
COMPOUND: CC(=O)N[C@@H]1[C@@H](O[C@@H]2O[C@H](CO)[C@H](O)[C@H](O)[C@H]2O)[C@@H](O)[C@@H](CO)O[C@@H]1O
OUTCOME_MEASURE: Signal value, Clec10a-Fc
REPORTED: 2504

COMPOUND: CC(=O)N[C@H]1[C@H]([C@H](O)[C@H](O)CO)O[C@@](O)(C(=O)O)C[C@@H]1O
OUTCOME_MEASURE: Signal value, Clec10a-Fc
REPORTED: 0

COMPOUND: CC(=O)N[C@H]1[C@H]([C@H](O)[C@H](O)CO)O[C@@](O[C@H](CO)[C@@H](O)[C@@H]2O[C@@](O)(C(=O)O)C[C@H](O)[C@H]2NC(C)=O)(C(=O)O)C[C@@H]1O
OUTCOME_MEASURE: Signal value, Clec10a-Fc
REPORTED: 0

COMPOUND: CC(=O)N[C@@H]1[C@@H](O)[C@H](O[C@@H]2O[C@H](CO)[C@H](O)[C@H](O[C@]3(C(=O)O)C[C@H](O)[C@@H](NC(C)=O)[C@H]([C@H](O)[C@H](O)CO)O3)[C@H]2O)[C@@H](CO)O[C@H]1O [3′SLN]
OUTCOME_MEASURE: Signal value, Clec10a-Fc
REPORTED: 7

COMPOUND: CC(=O)N[C@@H]1[C@@H](O)[C@H](O)[C@@H](CO)O[C@H]1O
OUTCOME_MEASURE: Signal value, Clec10a-Fc
REPORTED: 0

Enquiry: Request the reported Signal value, Clec10a-Fc associated with CC(=O)N[C@@H]1[C@@H](O)[C@H](O[C@@H]2O[C@H](CO)[C@H](O)[C@H](O)[C@H]2NC(C)=O)[C@@H](CO)O[C@H]1O
Return: 0
